What %-inhibition of MST2 was measured for each of the following?
Target: panel of more than 300 wild-type and mutant kinases (313 kinase panel) (Homo sapiens, UniProt Q13188)
Sequence (Q13188 1-491): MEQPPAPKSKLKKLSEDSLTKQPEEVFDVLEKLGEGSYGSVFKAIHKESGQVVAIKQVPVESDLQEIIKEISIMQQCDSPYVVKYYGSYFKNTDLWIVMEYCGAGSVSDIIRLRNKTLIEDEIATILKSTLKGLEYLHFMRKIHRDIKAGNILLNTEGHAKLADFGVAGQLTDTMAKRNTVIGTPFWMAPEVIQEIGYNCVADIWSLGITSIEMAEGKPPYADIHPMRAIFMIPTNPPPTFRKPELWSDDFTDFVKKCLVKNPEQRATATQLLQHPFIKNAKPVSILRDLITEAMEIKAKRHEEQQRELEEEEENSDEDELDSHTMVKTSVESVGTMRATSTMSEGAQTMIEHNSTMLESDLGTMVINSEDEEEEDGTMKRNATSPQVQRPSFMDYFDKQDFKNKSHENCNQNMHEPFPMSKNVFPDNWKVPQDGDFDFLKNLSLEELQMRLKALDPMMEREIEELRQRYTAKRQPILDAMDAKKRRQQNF
Assay: Kinase profiling in a biochemical assay panel (mobility shift assays and ELISA), %-inhibition at 1 μM; selectivity entropy
Settings: kinase MST2; 1 μM
One number for each entry, in %.

CO[C@H]1C[C@@H]2CC[C@@H](C)[C@@](O)(O2)C(=O)C(=O)N2CCCC[C@H]2C(=O)O[C@H]([C@H](C)C[C@@H]2CC[C@@H](OCCO)[C@H](OC)C2)CC(=O)[C@H](C)/C=C(\C)[C@@H](O)[C@@H](OC)C(=O)[C@H](C)C[C@H](C)/C=C/C=C/C=C/1C [everolimus]: -2.3
N#CC[C@H](C1CCCC1)n1cc(-c2ncnc3[nH]ccc23)cn1 [ruxolitinib]: 3

Each molecule below has a recorded value; state its %-inhibition of MST2.
1. O=S(=O)(c1cccc2cnccc12)N1CCCNCC1 [fasudil]
2. Cc1cn(-c2cc(NC(=O)c3ccc(C)c(Nc4nccc(-c5cccnc5)n4)c3)cc(C(F)(F)F)c2)cn1 [nilotinib]
3. Cc1ccc(Nc2nccc(N(C)c3ccc4c(C)n(C)nc4c3)n2)cc1S(N)(=O)=O [pazopanib]
4. COc1cc2c(Nc3ccc(Br)cc3F)ncnc2cc1OCC1CCN(C)CC1 [vandetanib]
5. C[C@@H](Oc1cc(-c2cnn(C3CCNCC3)c2)cnc1N)c1c(Cl)ccc(F)c1Cl [crizotinib]

1. 1.77
2. -8
3. 2
4. -4
5. 13

List the reported %-inhibition of MST2 of each molecule below.
1. CC(=O)Nc1cccc(-n2c(=O)n(C3CC3)c(=O)c3c(Nc4ccc(I)cc4F)n(C)c(=O)c(C)c32)c1 [trametinib]
2. CNC(=O)c1cc(Oc2ccc(NC(=O)Nc3ccc(Cl)c(C(F)(F)F)c3)c(F)c2)ccn1 [regorafenib]
3. COc1cc2nccc(Oc3ccc(NC(=O)C4(C(=O)Nc5ccc(F)cc5)CC4)cc3)c2cc1OC [cabozantinib]

[-3, -6.39, -0.31]

Please state %-inhibition of MST2 for every molecule in the list that follows.
1. CO[C@H]1C[C@@H]2CC[C@@H](C)[C@@](O)(O2)C(=O)C(=O)N2CCCC[C@H]2C(=O)O[C@H]([C@H](C)C[C@@H]2CC[C@@H](OC(=O)C(C)(CO)CO)[C@H](OC)C2)CC(=O)[C@H](C)/C=C(\C)[C@@H](O)[C@@H](OC)C(=O)[C@H](C)C[C@H](C)/C=C/C=C/C=C/1C [temsirolimus]
2. CCCS(=O)(=O)Nc1ccc(F)c(C(=O)c2c[nH]c3ncc(-c4ccc(Cl)cc4)cc23)c1F [vemurafenib]

1. -3.41
2. 24
